Source: paper PMC5731459

# assayExplanation: Plasma concentrations in the prophylactic monkey study
# Type: in vivo, Macaca mulatta
# conditionContext: po, 20 mg/kg
resultType: Cmax (µg/mL)
Answers are plain numbers, in µg/mL.

What Cmax value was documented for this compound, CS(=O)(=O)c1ccc(-c2cnc(N)c(-c3ccc(C(F)(F)F)nc3)c2)cc1 ?
1.98

---

# assayExplanation: Plasma concentrations in the prophylactic monkey study
# Type: in vivo, Macaca mulatta
# conditionContext: po, 20 mg/kg
resultType: half-life

What half-life value was documented for this compound, CS(=O)(=O)c1ccc(-c2cnc(N)c(-c3ccc(C(F)(F)F)nc3)c2)cc1 ?
~30 h

---

# Test system: Dd2 multidrug-resistant parental line
# assayExplanation: Cross-resistance test, parental line
# Type: cell-based
# conditionContext: Plasmodium falciparum
resultType: pIC50
One number for each entry, as −log10 of the molar value.

What pIC50 value was documented for this molecule, CS(=O)(=O)c1ccc(-c2cnc(N)c(-c3ccc(C(F)(F)F)nc3)c2)cc1 [MMV390048] ?
7.64
